target: Sigma 2 receptor; assay: Sigma 2 binding assay was done rat liver membrane, by labeling the binding site with [3H]-DTG (DuPont-NEN) in the presence of […]-pentazocine (100 nM)
Listed compounds paired with reported pKi
Note: pKi values are expressed as the negative base-10 logarithm of concentration in M.

The examples below pair each entry with its known result.
>  <COMPOUND>
O=C(CN1C2CCC1CC(c1ccccc1)C2)c1ccc(F)cc1 (stereo not given)

>  <REPORTED>
7.13

$$$$
>  <COMPOUND>
OC(CN1C2CCC1CC(c1ccccc1)C2)c1ccc(Cl)c(Cl)c1 (stereo not given)

>  <REPORTED>
7.73

$$$$
>  <COMPOUND>
O[C@H]1CCN(Cc2cccc(I)c2)C[C@@H]1N1C2CCC1CC(c1ccccc1)C2 (stereo not given in full)

>  <REPORTED>
6.56

$$$$
>  <COMPOUND>
O=C(CCCN1C2CCC1CC(c1ccccc1)C2)c1ccc(F)cc1 (stereo not given)

>  <REPORTED>
7.81

$$$$
>  <COMPOUND>
CN1CC2(CCN([C@@H]3CCCC[C@H]3O)CC2)c2ccccc21

>  <REPORTED>
6.45

$$$$

For Sigma 2 receptor, give pKi of the listed compound: O[C@@H](CN1CCC2(CCc3ccccc32)CC1)c1cccc(Br)c1
7.90

For Sigma 2 receptor, give pKi of the listed compound: OC(Cc1ccc(Br)cc1)CN1C2CCC1CC(c1ccccc1)C2 (stereo not given)
8.31

For Sigma 2 receptor, give pKi of the listed compound: OC(CN1C2CCC1CC(c1ccccc1)C2)c1ccccc1 (stereo not given)
7.49

For Sigma 2 receptor, give pKi of the listed compound: CN1CC2(CCN(CCCC(=O)c3ccc(F)cc3)CC2)c2ccccc21
7.22

For Sigma 2 receptor, give pKi of the listed compound: O[C@H]1CCN(Cc2ccc(F)cc2)C[C@@H]1N1C2CCC1CC(c1ccccc1)C2 (stereo not given in full)
6.58

For Sigma 2 receptor, give pKi of the listed compound: OC(CN1C2CCC1CC(c1ccccc1)C2)c1cccc(Br)c1 (stereo not given)
8.01

For Sigma 2 receptor, give pKi of the listed compound: O[C@H]1CCCC[C@@H]1N1C2CCC1CC(c1ccccc1)C2 (stereo not given in full)
6.93

For Sigma 2 receptor, give pKi of the listed compound: OC(CN1C2CCC1CC(c1ccccc1)C2)c1c(Cl)cccc1Cl (stereo not given)
7.80

For Sigma 2 receptor, give pKi of the listed compound: OC(CN1C2CCC1CC(c1ccccc1)C2)c1ccccc1Br (stereo not given)
8.11

For Sigma 2 receptor, give pKi of the listed compound: OC(CN1C2CCC1CC(c1ccccc1)C2)c1ccc(Br)cc1 (stereo not given)
7.95

* * *

target: Sigma 2 receptor; test: Sigma 2 binding assay was done rat liver membrane, by labeling the binding site with [3H]DTG (DuPont-NEN) in the presence of […]-pentazocine (100 nM)
// boundary case: Ki equal to 0.03 µM maps to False; strictly smaller maps to True

Would you please look over these solved cases?
>  <ITEM_SMILES>
CN1CC2(CCN([C@@H]3CN(Cc4cccc(I)c4)CC[C@H]3O)CC2)c2ccccc21

>  <LABEL_CLASS>
False

$$$$
>  <ITEM_SMILES>
O=C(CCCN1CCC2(CCc3ccccc32)CC1)c1ccc(F)cc1

>  <LABEL_CLASS>
True

$$$$
>  <ITEM_SMILES>
CN1CC2(CCN(C[C@H](O)c3cccc(Br)c3)CC2)c2ccccc21

>  <LABEL_CLASS>
False

$$$$

Given the entry O[C@H](Cc1ccc(Br)cc1)CN1CCC2(CCc3ccccc32)CC1 , would its reported Ki be below 0.03 µM?
True

Given the entry CN1CC2(CCN(C[C@H](O)Cc3ccc(Br)cc3)CC2)c2ccccc21 , would its reported Ki be below 0.03 µM?
True

Given the entry O[C@@H]1CCN(Cc2ccc(F)cc2)C[C@H]1N1CCC2(CCc3ccccc32)CC1 , would its reported Ki be below 0.03 µM?
False

Given the entry O[C@@H]1CCN(Cc2cccc(I)c2)C[C@H]1N1CCC2(CCc3ccccc32)CC1 , would its reported Ki be below 0.03 µM?
False

Attribution: ChEMBL document CHEMBL1130429
